Data provenance: paper PMC8306930

- Test system: MRC5 human fibroblast cells
- test-summary: CV viability assay, MRC5
- Assay type: cell-based
- study-conditions: MRC5, 72 h exposure, mean ± SD
metric-name: IC50

structure-smiles: CS(C)=O.Cc1c(C)c(C)[c-](-c2ccc(O)cc2)c1C.[Cl][Ir+][Cl]
system-tested: MRC5 human fibroblast cells
readout-value: > 100 µM
--
structure-smiles: CCC[c-]1c(C)c(C)c(C)c1C.CCC[c-]1c(C)c(C)c(C)c1C.[Cl-].[Cl-].[Cl-].[Cl-].[Ir+3].[Ir+3]
system-tested: MRC5 human fibroblast cells
readout-value: > 50 µM
--
structure-smiles: CC1=C(C)[C](c2ccc(O)cc2)([Ir]([Cl])[Cl])C(C)=C1C.CC1=C(C)[C](c2ccc(O)cc2)([Ir]([Cl])[Cl])C(C)=C1C
system-tested: MRC5 human fibroblast cells
readout-value: > 100 µM
--
structure-smiles: Cc1[cH-]c(C)c(C)c1C.Cc1[cH-]c(C)c(C)c1C.[Cl-].[Cl-].[Cl-].[Cl-].[Ir+3].[Ir+3]
system-tested: MRC5 human fibroblast cells
readout-value: > 50 µM
